ENDPOINT_NAME: melting point

[[record]]
smiles_representation = "O=C(c1ccc([N+](=O)[O-])cc1)N1CCc2cn[nH]c2-c2ncccc21"
value_observed = "255 to 256 °C"

[[record]]
smiles_representation = "Clc1ccccc1Cc1cccc2[nH]ccc12"
value_observed = "76 to 77 °C"

[[record]]
smiles_representation = "Cc1cc(C(=O)O)ccc1C#CCc1ccc2c(c1)C(C)(C)CCC2(C)C"
value_observed = "196 to 197 °C"

[[record]]
smiles_representation = "N#CN1Cc2ccccc2-c2ccccc2C1"
value_observed = "121 to 124 °C"

[[record]]
smiles_representation = "CN(Cc1cc2ccccc2n1C)C(=O)/C=C/c1ccc(N2C(=O)CCC2=O)nc1"
value_observed = "185 to 187 °C"

[[record]]
smiles_representation = "Cc1ccc(S(=O)(=O)OCCc2c(F)ccc(F)c2F)cc1"
value_observed = "73 to 74 °C"


###

Listed next: entries and their corresponding melting point.
ENDPOINT_NAME: melting point

[[record]]
compound = "Nc1ncccc1OCC#CI"
value_observed = "140 °C"

[[record]]
compound = "N#Cc1cc([N+](=O)[O-])ccc1OC1CCCCC1"
value_observed = "97 to 98 °C"

[[record]]
compound = "COc1cccc(C2(O)CCC(=O)CC2)c1"
value_observed = "105 to 108 °C"

[[record]]
compound = "CC(CCc1ccc(F)cc1)(Cn1ccnc1)Sc1cccc(Cl)c1Cl (stereo not given)"
value_observed = "131 to 132 °C"

[[record]]
compound = "CCOc1ccccc1-c1nc2c(C)cccc2c(=O)[nH]1"
value_observed = "177 to 180 °C"

[[record]]
compound = "O=C(O)C1COc2ccc(O)cc2O1 (stereo not given)"
value_observed = "204 °C"

[[record]]
compound = "CN1N=C2C(=Cc3ccccc3)CN(C(=O)CCCl)CC2C1c1ccccc1 (stereo not given)"
value_observed = "134 to 136 °C"

[[record]]
compound = "CCOc1nn(-c2ccc(C(F)(F)F)cn2)cc1CCCOc1ccc(CCC(=O)O)cc1OCc1ccccc1"
value_observed = "115 to 116 °C"

[[record]]
compound = "C#Cc1ccc2ccc(OC(OC)C(=O)NC(C)(C)COC)cc2c1 (stereo not given)"
value_observed = "91 to 92 °C"

[[record]]
compound = "Cc1oc(-c2ccccc2)nc1COc1ccc2c(-c3ccccc3)c(CCl)oc2c1"
value_observed = "129 to 130 °C"

[[record]]
compound = "O=C(O)C1Cc2c(c(Cl)cc3c(-c4ccccc4)noc23)O1 (stereo not given)"
value_observed = "221 to 224 °C"

[[record]]
compound = "C#Cc1cc(F)c(-n2c(=O)c(C)c(C(F)(F)F)n(C)c2=O)cc1NS(C)(=O)=O"
value_observed = "207 to 208 °C"

[[record]]
compound = "ClCc1cc2ccccc2nc1I"
value_observed = "138 to 140 °C"

[[record]]
compound = "CNC(=O)N1N=C(c2ccc(N)c(C)c2)c2cc(Cl)ccc2C=C1C"
value_observed = "210 to 212 °C"

[[record]]
compound = "COc1ccc(-n2c(-c3ccc(-c4ccc(-c5nc6c7ccccc7c7ccccc7c6n5-c5ccc(OC)cc5)cc4)cc3)nc3c4ccccc4c4ccccc4c32)cc1"
value_observed = "403 °C"

[[record]]
compound = "CN(CC(C)(C)[N+](=O)[O-])c1ccc(N(C)CC(C)(C)[N+](=O)[O-])cc1"
value_observed = "119 to 121 °C"

[[record]]
compound = "CC(C)Oc1cc(/C=C/S(=O)(=O)NC(=O)OC(C)(C)C)n(Cc2ccc(Cl)cc2Cl)n1"
value_observed = "152 to 153 °C"

[[record]]
compound = "CCOC(=O)C1(C(=O)OCC)CC(c2ccc(Cl)cc2[N+](=O)[O-])=CN1C(C)=O"
value_observed = "90 to 95 °C"

[[record]]
compound = "N#Cc1ccccc1N=Nc1ccc(O)cc1"
value_observed = "201 to 203 °C"

[[record]]
compound = "CCN1CCN(Cc2ccc3c(c2)-c2[nH]nc(-c4ccsc4)c2C3)CC1"
value_observed = "221 to 223 °C"


###

Listed next: entries and their corresponding melting point.
ENDPOINT_NAME: melting point

[[record]]
compound = "O=C1N(Cc2ccc(C(F)(F)F)o2)c2c(Cl)cccc2C12COc1cc3c(cc12)CCO3 (stereo unspecified)"
endpoint_name = "melting point"
value_observed = "210 to 211 °C"

[[record]]
compound = "COc1ccc2c(=O)n(S(=O)(=O)c3ccc(Cl)cc3)c(=O)[nH]c2c1"
endpoint_name = "melting point"
value_observed = "205 to 206 °C"

[[record]]
compound = "Cc1c(Cl)cc(C(C)(C)C)c(O)c1-c1nc2cc(OC(F)(F)F)ccc2[nH]1"
endpoint_name = "melting point"
value_observed = "243 to 244 °C"

[[record]]
compound = "CCCCCC(=O)NC(=O)C(c1ccccc1)c1ccccc1"
endpoint_name = "melting point"
value_observed = "87 °C"

[[record]]
compound = "COCCN(C)CC1=Cc2cc(S(N)(=O)=O)sc2S(=O)(=O)N1C"
endpoint_name = "melting point"
value_observed = "127 to 129 °C"

[[record]]
compound = "Cc1ccc([C@@H]2Sc3cc(COC(c4ccccc4)(c4ccccc4)c4ccccc4)ccc3N(CCN(C)C)C(=O)[C@@H]2O)cc1"
endpoint_name = "melting point"
value_observed = "110 to 114 °C"

[[record]]
compound = "O=C(O)c1ccc(-c2cc(-c3ccccc3)on2)cc1"
endpoint_name = "melting point"
value_observed = "297 to 298 °C"

[[record]]
compound = "Cc1ccc(NC(=O)c2cc(Cl)ccc2NCC2CCN(C3CCSCC3)CC2)nc1"
endpoint_name = "melting point"
value_observed = "173 to 176 °C"

[[record]]
compound = "Nc1ccc(-c2noc(-c3cnc4ccc(-c5ccc(Cl)cc5)cn34)n2)cn1"
endpoint_name = "melting point"
value_observed = "273 °C"

[[record]]
compound = "CCSCc1c(S(C)(=O)=O)ccc(C(=O)O)c1Cl"
endpoint_name = "melting point"
value_observed = "172 to 174 °C"

[[record]]
compound = "N#Cc1ccc(-c2cc(C#N)cc(Cn3cncn3)c2)cc1"
endpoint_name = "melting point"
value_observed = "154 to 155 °C"

[[record]]
compound = "CCCCC/C(=C\\C=C\\C(=O)NCCCCc1cccnc1)c1ccc(OC)cc1"
endpoint_name = "melting point"
value_observed = "81.5 to 82.5 °C"

[[record]]
compound = "Cn1ccnc1Sc1ccc(Nc2c(C#N)cnc3cc(/C=C/CCN4CCOCC4)ccc23)cc1Cl"
endpoint_name = "melting point"
value_observed = "232 to 238 °C"

[[record]]
compound = "Clc1ccccc1-c1c(I)nc2ncnn2c1NC1CCCC1"
endpoint_name = "melting point"
value_observed = "150 °C"

[[record]]
compound = "OCCOc1cccc(OCc2ccccc2)c1"
endpoint_name = "melting point"
value_observed = "40.5 to 43.5 °C"

[[record]]
compound = "Fc1ccc(C(Cl)(Cn2cncn2)C(F)(F)F)c(F)c1 (stereo unspecified)"
endpoint_name = "melting point"
value_observed = "87 to 88 °C"

[[record]]
compound = "CC(C)C1=NCCSC1=NOC(=O)N(C)SN1CCOCC1"
endpoint_name = "melting point"
value_observed = "127 to 128 °C"

[[record]]
compound = "COc1ccc(Nc2cccc3c2C(=O)N(C2CCC(=O)NC2=O)C3=O)c(Oc2ccccc2)c1 (stereo unspecified)"
endpoint_name = "melting point"
value_observed = "142 to 144 °C"

[[record]]
compound = "CCCCOc1c(C(OC(N)=O)C(C)(C)C)n(CC(C)(C)C)c(=O)c2ccc(OCC)cc12 (stereo unspecified)"
endpoint_name = "melting point"
value_observed = "138 to 139 °C"

[[record]]
compound = "CCCCCCCCCCOS(=O)(=O)NC(=O)Nc1c(C(C)C)cccc1C(C)C"
endpoint_name = "melting point"
value_observed = "133 to 135 °C"

[[record]]
compound = "Cc1cc(C)cc(S(=O)(=O)n2c(CCCCC(=O)O)cc3nc(Cl)ccc32)c1"
endpoint_name = "melting point"
value_observed = "160 °C"

[[record]]
compound = "N#Cc1c(Cl)cccc1C=O"
endpoint_name = "melting point"
value_observed = "138 to 140 °C"

[[record]]
compound = "COc1cc(OC)cc(N2CCN(C(=O)Nc3nc4ccccc4nc3OC)CC2)c1"
endpoint_name = "melting point"
value_observed = "140 to 141 °C"

[[record]]
compound = "Oc1c(CC2CCCCC2)ccc2ccccc12"
endpoint_name = "melting point"
value_observed = "53 to 56 °C"

[[record]]
compound = "COC(=O)CCc1ccc(-n2cn[nH]c2=O)cc1"
endpoint_name = "melting point"
value_observed = "174 to 176 °C"

[[record]]
compound = "N#Cc1cccc(Oc2ncccc2OCCCc2ccncc2O)c1"
endpoint_name = "melting point"
value_observed = "84 to 86 °C"

[[record]]
compound = "CN(C)C1(c2ccccc2)CCC(C(O)CN2Cc3ccccc3C2)CC1 (stereo unspecified)"
endpoint_name = "melting point"
value_observed = "130 to 135 °C"

[[record]]
compound = "Cn1ncnc1/C=C/c1ccccc1"
endpoint_name = "melting point"
value_observed = "67 to 70 °C"

[[record]]
compound = "OC(Cn1ccnc1)(Cn1cncn1)c1ccc(Cl)cc1Cl (stereo unspecified)"
endpoint_name = "melting point"
value_observed = "169 to 170 °C"

[[record]]
compound = "COC1=C(OC)C(=O)C2=C(CC(CCCCOc3ccc(C(=O)N4CCC(c5ccccc5)CC4)cc3)C2)C1=O"
endpoint_name = "melting point"
value_observed = "90 to 94 °C"

[[record]]
compound = "Cn1cc(-c2ccncc2)cc(N)c1=O"
endpoint_name = "melting point"
value_observed = "175 to 176 °C"

[[record]]
compound = "CCc1nc2c(N)nc3ccccc3c2n1CCCS(=O)(=O)N(C)C"
endpoint_name = "melting point"
value_observed = "209 to 211 °C"

[[record]]
compound = "CC(=O)N1CCCSC1=C[N+](=O)[O-]"
endpoint_name = "melting point"
value_observed = "91 to 92.5 °C"

[[record]]
compound = "CCC(C(=O)C(C)C(O)C(C)CCC1=C(C(=O)O)C(O)=C(C)CC1=[N+]=[N-])C1OC(CC)(C2CCC(O)(CC)C(C)O2)CC1C (stereo unspecified)"
endpoint_name = "melting point"
value_observed = "137 to 138 °C"

[[record]]
compound = "CC1CCN(c2nn3ccnc3c3c2CCCC3)CC1"
endpoint_name = "melting point"
value_observed = "95 to 95.5 °C"

[[record]]
compound = "CC(C)(C)c1cc(CCCO)cc(-n2nc3ccc(S(=O)(=O)c4ccccc4)cc3n2)c1O"
endpoint_name = "melting point"
value_observed = "159 to 161 °C"

[[record]]
compound = "O=C(CBr)C1=Cc2ccccc2OC1"
endpoint_name = "melting point"
value_observed = "87 °C"

[[record]]
compound = "O=C(O)C1CCN(c2cc(-c3ccc(Cl)cc3)nc3ccccc23)CC1"
endpoint_name = "melting point"
value_observed = "245 to 247 °C"

[[record]]
compound = "Cc1ccc(-c2c(NS(=O)(=O)c3ccc(C(C)(C)C)cc3)ncnc2OCCOc2ccc(N(C)C)cc2)cc1"
endpoint_name = "melting point"
value_observed = "142 to 145 °C"

[[record]]
compound = "COC(CN(C)C(=O)Nc1nnc(C(C)Oc2cccc(Cl)c2)s1)OC (stereo unspecified)"
endpoint_name = "melting point"
value_observed = "127 to 130 °C"

[[record]]
compound = "CN(C)S(=O)(=O)CCc1ccc2[nH]cc(CC#N)c2c1"
endpoint_name = "melting point"
value_observed = "105 to 107 °C"

